System: PPARg:RXRa IVT, anti-PPARg (NR concentration 270 nM, RXRa partner concentration 90 nM)
Test: PBM binding z-score (relative to random genomic background probes); higher = stronger binding; sequences stand for … in GC…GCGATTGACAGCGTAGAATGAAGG
Mark True for reported PBM binding z-score of 4 or greater; mark False for anything smaller.

1. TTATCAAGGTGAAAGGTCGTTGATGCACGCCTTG	True
2. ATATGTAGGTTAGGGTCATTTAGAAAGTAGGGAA	True

Exam item: decide whether the reported PBM binding z-score for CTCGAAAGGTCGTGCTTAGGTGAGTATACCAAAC is at least 4.
False

For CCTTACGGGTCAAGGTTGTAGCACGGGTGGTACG then?
False

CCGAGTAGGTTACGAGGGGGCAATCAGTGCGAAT , same question.
True

Input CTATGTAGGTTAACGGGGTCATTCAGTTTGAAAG
True

Now consider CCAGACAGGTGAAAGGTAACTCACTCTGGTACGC .
False

Now the sequence CTATGTAGGTTAAGGGGGTCCTTCAGTTTGAAAG
True

Entry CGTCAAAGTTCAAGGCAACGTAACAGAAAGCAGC please
False

Same for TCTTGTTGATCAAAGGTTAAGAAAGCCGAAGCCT
False
